Where do these numbers come from? They come from patent US10028992B2.

tested on: α7 integrin promoter; experiment: muscle cell-based assay: α7βgal+/− myoblasts/myotubes, LacZ reporter, β-galactosidase cleavage of FDG; parameters: species or system mouse; details: curve fit, activity at zero concentration
Item-by-item account of Fit Zero Activity [%]
Value expressed in %; do not type the unit.

Solved entries:
{"columns": ["molecule", "assayed target", "assay result"],
 "data": [
  ["COc1cccc(NC(=O)c2ccc3c(c2)CCCC3)c1", "α7 integrin promoter", "−31.8121"],
  ["COC(=O)c1ccc(C2C(C(=O)c3cc4ccccc4o3)=C(O)C(=O)N2CCN2CCOCC2)cc1 (stereo not shown)", "α7 integrin promoter", "−17.8968"],
  ["O=C(N/N=C/c1cn[nH]c1-c1ccc(F)cc1)c1ccncc1", "α7 integrin promoter", 14.6735]
]}

Inquiry: Please report the recorded Fit Zero Activity [%] for Cc1cc(C)nc(NC(=O)c2ccc(Cl)cc2Cl)n1 .
Reply text: 1.0914

Inquiry: Please report the recorded Fit Zero Activity [%] for O=S(=O)(N/C(=N/C1CCCCC1)c1ccccc1F)c1ccccc1 .
Reply text: −0.0336

Inquiry: Please report the recorded Fit Zero Activity [%] for Cc1ccccc1C(=O)Nc1nnc(SC(C)C)s1 .
Reply text: −0.5091

Inquiry: Please report the recorded Fit Zero Activity [%] for CC(=O)Nc1ccc(NC(=O)c2cc(=O)c3cc(C)cc(C)c3o2)cc1 .
Reply text: −2.9033

Inquiry: Please report the recorded Fit Zero Activity [%] for O=C(CSc1nnc(C2CC2)n1C1CC1)c1cccs1 .
Reply text: −27.5656

Inquiry: Please report the recorded Fit Zero Activity [%] for Sc1nnc(Cn2cnc3ccccc32)n1-c1ccccc1 .
Reply text: 8.5392

Inquiry: Please report the recorded Fit Zero Activity [%] for CC(C)(C)N/C=C(\C#N)S(=O)(=O)c1ccc(Br)cc1 .
Reply text: 7.5952
